Hey, just so you know, these numbers are from ChEMBL document CHEMBL4229545.

target: Cannabinoid receptor 1 (Rattus norvegicus); experiment: Agonist activity at recombinant rat Cb1 receptor expressed in HEK293 cells assessed as inhibition of forskolin-stimulated cAMP levels relative to control; type: functional, cell-based
Exam item: assign 1.0 to entries whose Emax is below 50% and 0.0 to entries at or above 50%. Note that a value of exactly 50% receives 0.0.

Is Emax of CC1=CC[C@H]2[C@H](C1)c1c(O)cc(/C(C)=N/OCCCC(F)(F)F)cc1OC2(C)C strictly below 50%?
0.0

Is Emax of CC1=CC[C@H]2[C@H](C1)c1c(O)cc(/C(C)=N/OCCCCF)cc1OC2(C)C strictly below 50%?
1.0

Is Emax of CC1=CC[C@H]2[C@H](C1)c1c(O)cc(/C(C)=N/OCCCc3ccccc3)cc1OC2(C)C strictly below 50%?
1.0

Is Emax of CC1=CC[C@H]2[C@H](C1)c1c(O)cc(/C(C)=N/OCCOc3ccccc3)cc1OC2(C)C strictly below 50%?
0.0

Is Emax of CC1=CC[C@H]2[C@H](C1)c1c(O)cc(/C(C)=N/OCCN3CCCCC3)cc1OC2(C)C strictly below 50%?
1.0

Is Emax of CCCC(C)O/N=C(\C)c1cc(O)c2c(c1)OC(C)(C)[C@H]1CC=C(C)C[C@H]21 (mixture of isomers) strictly below 50%?
1.0

* * *

biological target: Cannabinoid receptor 1 (Rattus norvegicus, UniProt P20272); assay: Agonist activity at recombinant rat Cb1 receptor expressed in HEK293 cells assessed as inhibition of forskolin-stimulated cAMP levels; type: functional, cell-based; details: read-out: EC50
Sequence (P20272 whole entry): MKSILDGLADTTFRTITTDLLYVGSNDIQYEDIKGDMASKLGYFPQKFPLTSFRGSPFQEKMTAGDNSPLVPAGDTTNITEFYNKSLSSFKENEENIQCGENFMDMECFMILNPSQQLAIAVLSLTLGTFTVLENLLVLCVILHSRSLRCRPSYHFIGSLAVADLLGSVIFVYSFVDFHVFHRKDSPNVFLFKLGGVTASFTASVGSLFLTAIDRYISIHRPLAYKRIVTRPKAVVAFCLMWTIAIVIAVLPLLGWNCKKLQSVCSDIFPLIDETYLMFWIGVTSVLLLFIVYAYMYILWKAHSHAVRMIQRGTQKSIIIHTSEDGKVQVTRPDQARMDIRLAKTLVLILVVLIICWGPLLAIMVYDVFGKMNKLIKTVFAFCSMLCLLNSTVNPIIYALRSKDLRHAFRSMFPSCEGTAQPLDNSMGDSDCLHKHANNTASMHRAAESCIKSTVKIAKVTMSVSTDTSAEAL
ASSAY ENDPOINT: pEC50
By convention, pEC50 is the negative base-10 log of a molar concentration.

In one line, give reported pEC50 of the entry CC1=CC[C@H]2[C@H](C1)c1c(O)cc(/C(C)=N/OCCCC#N)cc1OC2(C)C .
8.36

In one line, give reported pEC50 of the entry CC1=CC[C@H]2[C@H](C1)c1c(O)cc(/C(C)=N/OCCOc3ccccc3)cc1OC2(C)C .
9.05

In one line, give reported pEC50 of the entry CC1=CC[C@H]2[C@H](C1)c1c(O)cc(/C(C)=N/OCCCC(F)(F)F)cc1OC2(C)C .
9.40

In one line, give reported pEC50 of the entry CCCCO/N=C(\C)c1cc(O)c2c(c1)OC(C)(C)[C@H]1CC=C(C)C[C@H]21 .
9.24

In one line, give reported pEC50 of the entry CC1=CC[C@H]2[C@H](C1)c1c(O)cc(/C(C)=N/OCCCc3ccccc3)cc1OC2(C)C .
8.59

In one line, give reported pEC50 of the entry CCCC(C)O/N=C(\C)c1cc(O)c2c(c1)OC(C)(C)[C@H]1CC=C(C)C[C@H]21 (mixture of isomers) .
7.65

In one line, give reported pEC50 of the entry CC1=CC[C@H]2[C@H](C1)c1c(O)cc(/C(C)=N/OCCCCF)cc1OC2(C)C .
9.15

In one line, give reported pEC50 of the entry CC1=CC[C@H]2[C@H](C1)c1c(O)cc(/C(C)=N/OCCN3CCCCC3)cc1OC2(C)C .
7.90

* * *

Record form. Attribute: pKi. Fill in for each entry.
biological target: Cannabinoid receptor 2 (Homo sapiens, UniProt P34972); test: Displacement of [3H]CP-55,940 from recombinant human Cb2 receptor expressed in HEK293 cells; type: cell-based
Sequence (P34972 whole entry): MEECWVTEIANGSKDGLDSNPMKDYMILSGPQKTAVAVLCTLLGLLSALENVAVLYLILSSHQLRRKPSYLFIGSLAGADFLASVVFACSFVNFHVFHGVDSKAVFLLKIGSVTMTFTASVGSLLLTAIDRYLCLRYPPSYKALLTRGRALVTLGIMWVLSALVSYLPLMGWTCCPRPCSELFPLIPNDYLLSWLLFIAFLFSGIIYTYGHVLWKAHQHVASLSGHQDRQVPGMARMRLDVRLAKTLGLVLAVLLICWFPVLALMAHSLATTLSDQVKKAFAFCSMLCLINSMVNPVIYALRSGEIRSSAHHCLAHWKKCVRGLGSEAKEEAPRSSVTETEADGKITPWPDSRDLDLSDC
By convention, pKi is the negative base-10 log of a molar concentration.

In one line, give reported pKi of the entry CC1=CC[C@H]2[C@H](C1)c1c(O)cc(/C(C)=N/OCCN3CCOCC3)cc1OC2(C)C .
9.15

In one line, give reported pKi of the entry CC1=CC[C@H]2[C@H](C1)c1c(O)cc(/C(C)=N/OCCN3CCCC3)cc1OC2(C)C .
8.08

In one line, give reported pKi of the entry CC1=CC[C@H]2[C@H](C1)c1c(O)cc(/C(C)=N\OCCCc3ccccc3)cc1OC2(C)C .
8.54

In one line, give reported pKi of the entry CC1=CC[C@H]2[C@H](C1)c1c(O)cc(/C(C)=N/OCCCn3ccnc3)cc1OC2(C)C .
8.43

* * *

experiment: AUC in CD1 mouse liver at 10 mg/kg, po; type: ADME, organism-based
ASSAY ENDPOINT: AUC (ng·h/mL)
Answer with a number only, understood to be in ng·h/mL.

In one line, give reported AUC of the entry CC1=CC[C@H]2[C@H](C1)c1c(O)cc(/C(C)=N/OCCCC#N)cc1OC2(C)C .
308

* * *

assay: Half life in CD1 mouse at 10 mg/kg, po; format: ADME, organism-based; details: in vivo
ASSAY ENDPOINT: half-life (min)
Answer with a number only, understood to be in min.

In one line, give reported half-life of the entry CC1=CC[C@H]2[C@H](C1)c1c(O)cc(/C(C)=N/OCCCC#N)cc1OC2(C)C .
35.2

* * *

experiment: AUC in CD1 mouse brain at 2 mg/kg, iv; assay type: ADME, organism-based
ASSAY ENDPOINT: AUC (ng·h/mL)
Answer with a number only, understood to be in ng·h/mL.

In one line, give reported AUC of the entry CC1=CC[C@H]2[C@H](C1)c1c(O)cc(/C(C)=N/OCCCC#N)cc1OC2(C)C .
443

* * *

Reported Ki for target or system Cannabinoid receptor 1 (Rattus norvegicus, UniProt P20272), by entry.
Answer with a number only, understood to be in nM.

In one line, give reported Ki of the entry CC1=CC[C@H]2[C@H](C1)c1c(O)cc(/C(C)=N/OCCCc3ccccc3)cc1OC2(C)C .
3

In one line, give reported Ki of the entry CC1=CC[C@H]2[C@H](C1)c1c(O)cc(/C(C)=N/OCCCC#N)cc1OC2(C)C .
0.9

In one line, give reported Ki of the entry CCCC(C)O/N=C(\C)c1cc(O)c2c(c1)OC(C)(C)[C@H]1CC=C(C)C[C@H]21 (mixture of isomers) .
2

In one line, give reported Ki of the entry CCCCCCC(C)(C)c1cc(O)c2c(c1)OC(C)(C)[C@H]1CC=C(C)C[C@H]21 .
0.77

In one line, give reported Ki of the entry CCCCO/N=C(\C)c1cc(O)c2c(c1)OC(C)(C)[C@H]1CC=C(C)C[C@H]21 .
3.4

In one line, give reported Ki of the entry CC1=CC[C@H]2[C@H](C1)c1c(O)cc(/C(C)=N/OCCCC(F)(F)F)cc1OC2(C)C .
0.3

In one line, give reported Ki of the entry CC1=CC[C@H]2[C@H](C1)c1c(O)cc(/C(C)=N/OCCOc3ccccc3)cc1OC2(C)C .
11.4

* * *

molecular target: UniProt:P20272; assay: Agonist activity at recombinant rat Cb1 receptor expressed in HEK293 cells assessed as inhibition of forskolin-stimulated cAMP levels relative to control; type: functional, cell-based
Record form. Attribute: Emax. Fill in for each entry.
Answer with a number only, understood to be in %.

In one line, give reported Emax of the entry CCCCO/N=C(\C)c1cc(O)c2c(c1)OC(C)(C)[C@H]1CC=C(C)C[C@H]21 .
51

In one line, give reported Emax of the entry CC1=CC[C@H]2[C@H](C1)c1c(O)cc(/C(C)=N/OCCCC#N)cc1OC2(C)C .
51
